System: HEK293T (UBE3A T485A transfected, BAR Wnt reporter)
test.name: Wnt reporter firefly/Renilla luciferase ratio relative to plate median (fold (linear ratio)); higher = more Wnt/beta-catenin reporter activation
protocol.conditions: concentration: 1 uM; 24 h
The full ranking holds about 1,100 compounds; the median of “Wnt reporter firefly/Renilla luciferase ratio relative to plate median” is about 1.1, and the highest 2% start at about 1.6. The list comes from a sample in which the highest values are over-represented; it also holds close analogues and randomly drawn compounds.
test.readout: Wnt reporter firefly/Renilla luciferase ratio
Lab note: write the figure by itself, no unit.

Ask: So what does the record say about Wnt reporter firefly/Renilla luciferase ratio for O=C(Nc1ccccc1)Nc1ccnc(Cl)c1 [Forchlorfenuron] ?
Reply: 0.957

Ask: So what does the record say about Wnt reporter firefly/Renilla luciferase ratio for Clc1ccccc1-c1nnc(-c2ccccc2Cl)nn1 [Clofentezine] ?
Reply: 0.999

Ask: So what does the record say about Wnt reporter firefly/Renilla luciferase ratio for N#Cc1nn(-c2c(Cl)cc(C(F)(F)F)cc2Cl)c(N)c1S(=O)C(F)(F)F (centres undefined) [Fipronil] ?
Reply: 0.987

Ask: So what does the record say about Wnt reporter firefly/Renilla luciferase ratio for C1=Cc2cccc3cccc1c23 [Acenaphthylene] ?
Reply: 1.26

Ask: So what does the record say about Wnt reporter firefly/Renilla luciferase ratio for Cc1ccc(N)cc1 [4-Methylaniline] ?
Reply: 1.18

Ask: So what does the record say about Wnt reporter firefly/Renilla luciferase ratio for Nc1ccc(-c2ccc(N)cc2)cc1 [Benzidine] ?
Reply: 1.11
